Experiment: Drug loading by soaking hydrogel discs in drug solution (weight gain)
Type: physicochemical
Settings: 48-hour soak, HEMA-based discs with 15% MPMA vs without; FIG. 5

Cpd smiles	effect of MPMA on amount of drug loaded
Cc1ncc([N+](=O)[O-])n1CCO	did not affect loading
NC[C@H]1O[C@H](O[C@H]2[C@H](O)[C@@H](O[C@H]3O[C@H](CO)[C@@H](O)[C@H](N)[C@H]3O)[C@H](N)C[C@@H]2N)[C@H](N)C[C@@H]1O	did not affect loading

* * *

Experiment: Drug release into PBS and extraction from HEMA-based hydrogel discs
Assay type: physicochemical
Settings: HEMA-based discs with MPMA vs without; FIG. 7
Value type: effect of MPMA on total amount of drug released and extracted

Compound	Observed result
C[C@]12C=CC(=O)C=C1CC[C@@H]1[C@@H]2[C@@H](O)C[C@@]2(C)[C@H]1CC[C@]2(O)C(=O)COP(=O)(O)O [predP, Prednisolone phosphate]	significantly greater
C[C@@H]1C[C@H]2[C@@H]3CCC4=CC(=O)C=C[C@]4(C)[C@@]3(F)[C@@H](O)C[C@]2(C)[C@@]1(O)C(=O)COP(=O)(O)O [dexP, dexamethasone phosphate]	significantly greater
